Target: GSK-3β, (AA 1-420) (Homo sapiens)
Sequence (P49841 whole entry, the tested form may be a part): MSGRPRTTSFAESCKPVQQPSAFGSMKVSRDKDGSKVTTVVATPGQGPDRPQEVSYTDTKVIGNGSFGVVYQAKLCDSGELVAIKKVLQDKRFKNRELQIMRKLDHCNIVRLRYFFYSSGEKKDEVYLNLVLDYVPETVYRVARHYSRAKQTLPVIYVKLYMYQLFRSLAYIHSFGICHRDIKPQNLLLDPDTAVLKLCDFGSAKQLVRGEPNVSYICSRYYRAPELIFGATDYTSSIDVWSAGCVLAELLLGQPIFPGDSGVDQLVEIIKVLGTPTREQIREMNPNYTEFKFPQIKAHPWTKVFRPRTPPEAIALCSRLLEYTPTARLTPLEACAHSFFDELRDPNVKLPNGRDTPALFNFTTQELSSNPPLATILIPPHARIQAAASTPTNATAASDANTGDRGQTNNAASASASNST
Assay: GSK-3 inhibition assay, coupled enzyme system
Type: biochemical
Details: 20 μM ATP, 300 μM peptide, 20 nM GSK-3b, 30° C.; read-out: Ki values (GSK3)
measured-attribute: Ki

Task: I am curious: what Ki value has been reported for Cc1noc(-c2c[nH]c3ncccc23)c1-c1cccc(F)c1F [Compound 134] ?
Output: 200 to 1000 nM

---

Molecular target: TAK1A-TAB fusion protein (Homo sapiens, UniProt O43318)
Construct: using 20 nM TAK1A-TAB fusion protein
Sequence (O43318 with tags, fused parts or gaps isoform O43318-2 limits assumed): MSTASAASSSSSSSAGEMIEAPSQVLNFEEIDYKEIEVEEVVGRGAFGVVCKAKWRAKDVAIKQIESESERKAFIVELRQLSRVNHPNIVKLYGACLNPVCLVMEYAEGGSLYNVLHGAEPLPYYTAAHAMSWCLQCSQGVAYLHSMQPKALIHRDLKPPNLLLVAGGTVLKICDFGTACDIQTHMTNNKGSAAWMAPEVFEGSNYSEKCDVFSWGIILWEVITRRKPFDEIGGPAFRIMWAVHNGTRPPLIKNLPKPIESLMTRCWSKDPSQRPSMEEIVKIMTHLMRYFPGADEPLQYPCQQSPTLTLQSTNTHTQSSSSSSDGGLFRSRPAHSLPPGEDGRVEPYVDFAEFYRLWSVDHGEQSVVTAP
Test: TAK-1 inhibition assay, radiometric filter binding assay
Conditions: 50 μM ATP, 12 μM bovine myelin basic protein, 20 nM TAK1A-TAB fusion protein
pKi: −log10 of the molar value.
measured-attribute: pKi

Task: Fill in: pKi of Fc1cccc(-c2cnoc2-c2c[nH]c3ncc(/C=C/n4cncn4)cc23)c1F is ___
Output: 6.00 to 6.70

Task: Now the compound CN(C)Cc1ccc(-c2cnc3[nH]cc(-c4oncc4-c4cccc(F)c4F)c3c2)nc1
Output: 6.00 to 6.70

Task: One more compound: Fc1cccc(-n2cnnc2-c2c[nH]c3ncc(-c4ccc(CN5CCOCC5)cc4)cc23)c1F
Output: 6.00 to 6.70

Task: Next up: Clc1cccc(-c2cnoc2-c2c[nH]c3ncc(-c4cccnc4)cc23)c1Cl
Output: 6.00 to 6.70

---

Below are compounds with their Ki as measured on JAK3 (Homo sapiens, UniProt P52333).
Sequence (P52333 whole entry): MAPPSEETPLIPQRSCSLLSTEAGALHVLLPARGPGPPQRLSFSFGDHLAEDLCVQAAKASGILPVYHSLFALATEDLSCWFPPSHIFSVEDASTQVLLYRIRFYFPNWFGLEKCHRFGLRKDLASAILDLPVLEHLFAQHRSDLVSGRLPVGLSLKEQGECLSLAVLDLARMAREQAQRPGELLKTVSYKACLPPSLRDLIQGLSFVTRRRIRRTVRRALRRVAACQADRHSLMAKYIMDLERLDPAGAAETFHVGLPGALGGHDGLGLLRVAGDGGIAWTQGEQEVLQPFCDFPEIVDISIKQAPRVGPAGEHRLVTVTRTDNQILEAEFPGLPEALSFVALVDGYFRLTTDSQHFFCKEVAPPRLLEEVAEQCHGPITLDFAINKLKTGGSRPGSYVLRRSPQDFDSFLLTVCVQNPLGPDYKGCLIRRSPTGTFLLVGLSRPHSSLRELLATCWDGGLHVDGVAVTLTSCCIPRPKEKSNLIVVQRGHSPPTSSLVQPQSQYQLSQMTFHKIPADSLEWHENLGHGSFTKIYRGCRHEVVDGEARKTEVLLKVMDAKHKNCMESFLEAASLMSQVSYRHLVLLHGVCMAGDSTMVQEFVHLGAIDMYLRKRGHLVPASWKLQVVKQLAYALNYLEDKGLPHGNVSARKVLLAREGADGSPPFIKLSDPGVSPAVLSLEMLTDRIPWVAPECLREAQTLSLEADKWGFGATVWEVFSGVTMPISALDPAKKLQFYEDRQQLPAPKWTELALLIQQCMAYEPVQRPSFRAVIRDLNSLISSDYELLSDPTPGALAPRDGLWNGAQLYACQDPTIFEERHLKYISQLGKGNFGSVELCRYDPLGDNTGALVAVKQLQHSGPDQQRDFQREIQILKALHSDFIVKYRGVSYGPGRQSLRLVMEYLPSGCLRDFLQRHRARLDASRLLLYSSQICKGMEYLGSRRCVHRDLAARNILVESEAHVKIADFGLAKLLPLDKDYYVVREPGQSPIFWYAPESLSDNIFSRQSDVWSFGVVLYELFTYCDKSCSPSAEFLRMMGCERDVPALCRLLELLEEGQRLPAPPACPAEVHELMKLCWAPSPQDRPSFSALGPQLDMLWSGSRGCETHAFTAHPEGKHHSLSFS

compound="OCc1cnc2[nH]cc(-c3oncc3-c3cccc(F)c3F)c2c1 [Compound 55]" result="1000 to 12500 nM"
compound="CN(C)c1ccc(-c2cnc3[nH]cc(-c4oncc4-c4cccc(F)c4F)c3c2)cc1 [Compound 88]" result="< 200 nM"
compound="CN(C)Cc1ccc(-c2cnc3[nH]cc(-c4oncc4-c4cccc(F)c4F)c3c2)cc1 [Compound 91]" result="< 200 nM"
compound="Fc1cccc(-c2cnoc2-c2c[nH]c3ncccc23)c1F [Compound 1]" result="200 to 1000 nM"
compound="CCN1CCC(c2cnc3[nH]cc(-c4oncc4-c4cccc(F)c4F)c3c2)CC1 [Compound 72]" result="1000 to 12500 nM"

Consider the record given below.
Task: Fill in: Ki of Fc1cccc(-c2cnoc2-c2c[nH]c3ncc(-c4ccc(N5CCNCC5)cc4)cc23)c1F [Compound 68] is ___
Output: < 200 nM

---

Quick list: Ki per entry.
Biological target: TAK1A-TAB fusion protein (Homo sapiens)
Construct: using 20 nM TAK1A-TAB fusion protein
Assay: TAK-1 inhibition assay, radiometric filter binding assay
Conditions: 50 μM ATP, 12 μM bovine myelin basic protein, 20 nM TAK1A-TAB fusion protein

smiles_code=Fc1ccc(-c2cnc3[nH]cc(-c4oncc4-c4cccc(F)c4F)c3c2)cn1 result="200 to 1000 nM"
smiles_code=COc1ccnc(-c2cnc3[nH]cc(-c4oncc4-c4cccc(F)c4F)c3c2)c1 result="200 to 1000 nM"
smiles_code=CN(C)c1ccc(-c2cnc3[nH]cc(-c4nncn4-c4cccc(F)c4F)c3c2)cc1 result="200 to 1000 nM"
smiles_code=Fc1cccc(-n2cnnc2-c2c[nH]c3ncc(-c4ccc(N5CCNCC5)nc4)cc23)c1F result="1000 to 12500 nM"

Task: Entry C[N+]1(C)CCN(c2ccc(-c3cnc4[nH]cc(-c5oncc5-c5cccc(F)c5F)c4c3)cc2)CC1 : reported Ki = ?
Output: < 200 nM

// provenance: patent US7446199B2
